test system: lung cancer (A549) cell line; test: MTT cytotoxicity assay, A549; conditions: Conc. 50 (µM per method); Table S3

>  <compound>
CC1=[N+]([O-])C(c2ccc(F)cc2)Nc2ccc(I)cc21 (stereo not drawn) [Compound 3f]

>  <Cell viability percentage, A549>
32,7708%

$$$$
>  <compound>
CC1=[N+]([O-])C(c2ccc(Cl)cc2)Nc2ccc(Br)cc21 (stereo not drawn) [Compound 3c]

>  <Cell viability percentage, A549>
29,5534%

$$$$
>  <compound>
CC1=[N+]([O-])C(c2ccccc2)Nc2c(I)cc(Br)cc21 (stereo not drawn) [Compound 3i]

>  <Cell viability percentage, A549>
23,0847%

$$$$
>  <compound>
CC1=[N+]([O-])C(c2ccccc2)Nc2ccc(I)cc21 (stereo not drawn) [Compound 3e]

>  <Cell viability percentage, A549>
30,3184%

$$$$
>  <compound>
CC1=[N+]([O-])C(c2ccccc2)Nc2ccc(Br)cc21 (stereo not drawn) [Compound 3a]

>  <Cell viability percentage, A549>
30,5771%

$$$$
>  <compound>
CC1=[N+]([O-])C(c2ccc(F)cc2)Nc2ccc(Br)cc21 (stereo not drawn) [Compound 3b]

>  <Cell viability percentage, A549>
28,8446%

$$$$
>  <compound>
CC1=[N+]([O-])C(c2ccc(F)cc2)Nc2c(I)cc(Br)cc21 (stereo not drawn) [Compound 3j]

>  <Cell viability percentage, A549>
29,7109%

$$$$
>  <compound>
COc1ccc(C2Nc3ccc(I)cc3C(C)=[N+]2[O-])cc1 (stereo not drawn) [Compound 3h]

>  <Cell viability percentage, A549>
38,362%

$$$$
>  <compound>
COc1ccc(C2Nc3c(Br)cc(I)cc3C(C)=[N+]2[O-])cc1 (stereo not drawn) [Compound 3p]

>  <Cell viability percentage, A549>
39,3879%

$$$$

====

tested on: breast cancer (MCF-7) cell line; test: MTT cytotoxicity assay, MCF-7; conditions: Conc. 25 (µM per method); Table S2
property-label: Cell viability percentage, MCF-7

>  <compound>
CC1=[N+]([O-])C(c2ccc(Cl)cc2)Nc2c(Br)cc(I)cc21 (stereo not drawn)

>  <reading>
38,7891%

$$$$
>  <compound>
CC1=[N+]([O-])C(c2ccc(Cl)cc2)Nc2ccc(I)cc21 (racemic)

>  <reading>
35,8117%

$$$$
>  <compound>
COc1ccc(C2Nc3ccc(Br)cc3C(C)=[N+]2[O-])cc1 (stereo not drawn)

>  <reading>
43,2136%

$$$$
>  <compound>
COc1ccc(C2Nc3c(Br)cc(I)cc3C(C)=[N+]2[O-])cc1 (stereo not drawn)

>  <reading>
43,212%

$$$$
>  <compound>
CC1=[N+]([O-])C(c2ccccc2)Nc2c(I)cc(Br)cc21 (stereo not drawn)

>  <reading>
19,5775%

$$$$
>  <compound>
CC1=[N+]([O-])C(c2ccc(F)cc2)Nc2c(I)cc(Br)cc21 (stereo not drawn)

>  <reading>
30,7493%

$$$$
>  <compound>
CC1=[N+]([O-])C(c2ccccc2)Nc2ccc(Br)cc21 (stereo not drawn)

>  <reading>
22,3387%

$$$$
>  <compound>
COc1ccc(C2Nc3ccc(I)cc3C(C)=[N+]2[O-])cc1 (stereo not drawn)

>  <reading>
41,2009%

$$$$
>  <compound>
CC1=[N+]([O-])C(c2ccc(F)cc2)Nc2c(Br)cc(I)cc21 (stereo not drawn)

>  <reading>
31,7365%

$$$$

====

Listed next: entries and their corresponding viability at 50 µM.
assay: MTT cytotoxicity assay, HEK293-T; details: human, HEK293-T cells

>  <compound>
CC1=[N+]([O-])C(c2ccccc2)Nc2c(I)cc(Br)cc21 (stereo not drawn)

>  <unit-of-measure>
%

>  <viability at 50 µM>
26.9

$$$$
>  <compound>
CC1=[N+]([O-])C(c2ccc(F)cc2)Nc2ccc(I)cc21 (stereo not drawn)

>  <unit-of-measure>
%

>  <viability at 50 µM>
14.7

$$$$
>  <compound>
CC1=[N+]([O-])C(c2ccc(F)cc2)Nc2c(I)cc(Br)cc21 (stereo not drawn)

>  <unit-of-measure>
%

>  <viability at 50 µM>
19.4

$$$$
>  <compound>
CC1=[N+]([O-])C(c2ccc(Cl)cc2)Nc2c(I)cc(Br)cc21 (stereo not drawn)

>  <unit-of-measure>
%

>  <viability at 50 µM>
24

$$$$
>  <compound>
CC1=[N+]([O-])C(c2ccc(F)cc2)Nc2ccc(Br)cc21 (stereo not drawn)

>  <unit-of-measure>
%

>  <viability at 50 µM>
35.8

$$$$
>  <compound>
CC1=[N+]([O-])C(c2ccc(Cl)cc2)Nc2c(Br)cc(I)cc21 (stereo not drawn)

>  <unit-of-measure>
%

>  <viability at 50 µM>
37.7

$$$$
>  <compound>
COc1ccc(C2Nc3ccc(Br)cc3C(C)=[N+]2[O-])cc1 (stereo not drawn)

>  <unit-of-measure>
%

>  <viability at 50 µM>
17.6

$$$$
>  <compound>
COc1ccc(C2Nc3c(I)cc(Br)cc3C(C)=[N+]2[O-])cc1 (stereo not drawn)

>  <unit-of-measure>
%

>  <viability at 50 µM>
19.7

$$$$
>  <compound>
CC1=[N+]([O-])C(c2ccccc2)Nc2ccc(I)cc21 (stereo not drawn)

>  <unit-of-measure>
%

>  <viability at 50 µM>
20

$$$$
>  <compound>
COc1ccc(C2Nc3ccc(I)cc3C(C)=[N+]2[O-])cc1 (stereo not drawn)

>  <unit-of-measure>
%

>  <viability at 50 µM>
28.1

$$$$
>  <compound>
CC1=[N+]([O-])C(c2ccccc2)Nc2c(Br)cc(I)cc21 (stereo not drawn)

>  <unit-of-measure>
%

>  <viability at 50 µM>
19.1

$$$$
>  <compound>
CC1=[N+]([O-])C(c2ccc(Cl)cc2)Nc2ccc(Br)cc21 (stereo not drawn)

>  <unit-of-measure>
%

>  <viability at 50 µM>
23.5

$$$$
>  <compound>
CC1=[N+]([O-])C(c2ccc(F)cc2)Nc2c(Br)cc(I)cc21 (stereo not drawn)

>  <unit-of-measure>
%

>  <viability at 50 µM>
20.5

$$$$
>  <compound>
CC1=[N+]([O-])C(c2ccccc2)Nc2ccc(Br)cc21 (stereo not drawn)

>  <unit-of-measure>
%

>  <viability at 50 µM>
19

$$$$
>  <compound>
COc1ccc(C2Nc3c(Br)cc(I)cc3C(C)=[N+]2[O-])cc1 (stereo not drawn)

>  <unit-of-measure>
%

>  <viability at 50 µM>
18.4

$$$$

====

test system: lung cancer (A549) cell line; test: MTT cytotoxicity assay, A549; conditions: Conc. 5 (µM per method); Table S3
property-label: Cell viability percentage, A549

>  <compound>
COc1ccc(C2Nc3c(I)cc(Br)cc3C(C)=[N+]2[O-])cc1 (centres unmarked)

>  <reading>
82,1465%

$$$$
>  <compound>
CC1=[N+]([O-])C(c2ccc(F)cc2)Nc2ccc(I)cc21 (centres unmarked)

>  <reading>
71,9204%

$$$$
>  <compound>
COc1ccc(C2Nc3ccc(I)cc3C(C)=[N+]2[O-])cc1 (centres unmarked)

>  <reading>
86,9389%

$$$$
>  <compound>
COc1ccc(C2Nc3c(Br)cc(I)cc3C(C)=[N+]2[O-])cc1 (centres unmarked)

>  <reading>
44,7771%

$$$$
>  <compound>
CC1=[N+]([O-])C(c2ccccc2)Nc2ccc(I)cc21 (centres unmarked)

>  <reading>
64,338%

$$$$

====

test system: human embryonic kidney (HEK293-T) cell line; test: MTT cytotoxicity assay, HEK293-T; settings: Homo sapiens, HEK-293T, read-out: IC50 Hek293-T
pIC50: −log10 of the molar value.
property-label: pIC50

>  <compound>
COc1ccc(C2Nc3c(I)cc(Br)cc3C(C)=[N+]2[O-])cc1 (centres unmarked) [Compound 3l]

>  <property-label>
pIC50

>  <reading>
4.49

$$$$
>  <compound>
COc1ccc(C2Nc3c(Br)cc(I)cc3C(C)=[N+]2[O-])cc1 (centres unmarked) [Compound 3p]

>  <property-label>
pIC50

>  <reading>
4.23

$$$$
>  <compound>
CC1=[N+]([O-])C(c2ccc(Cl)cc2)Nc2c(I)cc(Br)cc21 (centres unmarked) [Compound 3k]

>  <property-label>
pIC50

>  <reading>
4.68

$$$$
>  <compound>
COc1ccc(C2Nc3ccc(I)cc3C(C)=[N+]2[O-])cc1 (centres unmarked) [Compound 3h]

>  <property-label>
pIC50

>  <reading>
4.62

$$$$
>  <compound>
CC1=[N+]([O-])C(c2ccc(Cl)cc2)Nc2ccc(Br)cc21 (centres unmarked) [Compound 3c]

>  <property-label>
pIC50

>  <reading>
4.56

$$$$
